# Test system: S. epidermidis
# assay-comment: Effects of aromatic esters of GMCHA on growth of S. epidermidis
# Format: cell-based
measured-endpoint: S. epidermidis IC91
Numbers only.

Please review the following examples before continuing.
Cc1ccc(OC(=O)C2CCC(CNC(=N)N)CC2)cc1 (centres unmarked)	48
CC(C)(C)c1ccc(OC(=O)C2CCC(CNC(=N)N)CC2)cc1 (centres unmarked)	2.9
CCc1ccc(OC(=O)C2CCC(CNC(=N)N)CC2)cc1 (centres unmarked)	14
N=C(N)NCC1CCC(C(=O)Oc2ccc(-c3ccccc3)cc2)CC1 (centres unmarked)	0.4

Now look at this one.
Problem: Name the recorded S. epidermidis IC91 of N=C(N)NCC1CCC(C(=O)Oc2ccccc2)CC1 (centres unmarked) , assay system S. epidermidis.
Result: 128

The measured values listed here are drawn from patent US6734212B2.
